B1: PhoQ; a variant is named by its letters at X, in order, P23837 (parent)
chain: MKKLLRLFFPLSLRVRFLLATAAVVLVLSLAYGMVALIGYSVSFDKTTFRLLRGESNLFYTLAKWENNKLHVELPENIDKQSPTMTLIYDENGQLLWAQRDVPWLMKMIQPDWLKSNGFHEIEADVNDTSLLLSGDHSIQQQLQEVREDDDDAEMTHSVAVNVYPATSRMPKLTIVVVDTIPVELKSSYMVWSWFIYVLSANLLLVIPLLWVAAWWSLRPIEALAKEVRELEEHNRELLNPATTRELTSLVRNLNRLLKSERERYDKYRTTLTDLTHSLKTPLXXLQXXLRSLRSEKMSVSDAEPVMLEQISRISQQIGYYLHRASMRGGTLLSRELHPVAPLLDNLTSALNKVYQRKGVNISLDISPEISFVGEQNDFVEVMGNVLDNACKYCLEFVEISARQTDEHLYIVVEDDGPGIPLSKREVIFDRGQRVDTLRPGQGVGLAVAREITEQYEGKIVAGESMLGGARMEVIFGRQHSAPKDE

Variants of: B1
method-notes: enrichment ratio after two sorts for PhoP signalling (ratio (wild type AVST 3.29)); higher = more functional
run-conditions: with PhoP (E. coli)
Whole data set: some 140,000 sequences, median “enrichment ratio after two sorts for PhoP signalling” near 0, cut for the highest 2% near 11. The entries come from a sample that favours the highest values as a whole.
recorded-endpoint: enrichment ratio

INSERT INTO results (variant, value_observed) VALUES
  ('AQGM', 13.3),
  ('NSGN', '≤ 0.25'),
  ('LNYL', '≤ 0.25');

All figures here come from a collection of fitness landscapes (doi:10.1126/science.1257360).
